- Test Details: MTT cell viability of RAW 264.7 macrophages
- Format: cell-based
- Experimental Parameters: mouse, LPS-activated RAW 264.7 macrophages, MTT assay, read-out: cytotoxicity (%) toward RAW 264.7 (cell viability)
// reported viability at 50 µM for each item listed

{"columns": ["Molecule", "viability at 50 µM, %"],
 "data": [
  ["C=C(C)[C@@H]1[C@H](O)C[C@]2(C)Oc3c(C)c4c(c(OC)c3C[C@@H]2[C@@]1(C)CCC(=O)O)C(=O)OC4 [Compound 7, austalide Q acid]", 80.8],
  ["COC(=O)CC[C@]1(C)[C@H]2Cc3c(c(C)c4c(c3OC)C(=O)OC4)O[C@@]2(C)CC[C@H]1C(C)(C)O [Compound 2, austalide P]", 46.2],
  ["C=C1CC[C@@H]2[C@](C)(CCC[C@]2(C)C(=O)O)[C@H]1CC/C(C)=C/C(=O)O", 89.9],
  ["C=C(C)[C@@H]1CC[C@]2(C)Oc3c(C)c4c(c(OC)c3C[C@@H]2[C@@]1(C)CCC(=O)O)C(=O)OC4 [Compound 8, 13-deoxyaustalide Q acid]", 53.5],
  ["COc1c2c(c(C)c3c1C(=O)OC3)OC1(C)CC(O)C34OC(O)(CCC3(C)C1C2)OC4(C)C (centres unmarked) [Compound 6, 17-O-demethylaustalide B]", 74.6]
]}

---

- Test Details: Cytotoxicity toward MDA-MB-468 breast carcinoma cells
- Format: cell-based, human
- Parameters: concentration or dose not given beside the values
- Experimental Parameters: human, MDA-MB-468 breast carcinoma cells; read-out: cytotoxicity (%) toward MDA-MB-468 (cell viability)

{"columns": ["Molecule", "viability, %"],
 "data": [
  ["C=C(C)[C@@H]1[C@H](O)C[C@]2(C)Oc3c(C)c4c(c(OC)c3C[C@@H]2[C@@]1(C)CCC(=O)O)C(=O)OC4 [Compound 7, austalide Q acid]", 91.1],
  ["C=C1CCC2C(C)(CCC(OC(C)=O)C2(C)C(=O)O)C1CCC(C)=CC(=O)O (centres unmarked)", 94.5],
  ["COC(=O)CCC1(C)C(C(C)(C)O)CCC2(C)Oc3c(C)c4c(c(O)c3CC21)C(=O)OC4 (centres unmarked) [Compound 1, austalide Y]", 31.6],
  ["COc1c2c(c(C)c3c1C(=O)OC3)OC1(C)CC(O)C34OC(O)(CCC3(C)C1C2)OC4(C)C (centres unmarked) [Compound 6, 17-O-demethylaustalide B]", 92.3],
  ["COC(=O)CC[C@]1(C)[C@H]2Cc3c(c(C)c4c(c3OC)C(=O)OC4)O[C@@]2(C)C[C@@H](O)[C@H]1C(C)(C)O [Compound 3, austalide H]", 87.2],
  ["COc1c2c(c(C)c3c1C(=O)OC3)O[C@@]1(C)C[C@@H](O)[C@@H](C(C)(C)O)[C@](C)(CCC(=O)O)[C@H]1C2 [Compound 5, austalide H acid]", 87.3],
  ["C=C(C)[C@@H]1CC[C@]2(C)Oc3c(C)c4c(c(OC)c3C[C@@H]2[C@@]1(C)CCC(=O)O)C(=O)OC4 [Compound 8, 13-deoxyaustalide Q acid]", 79.3],
  ["COc1c2c(c(C)c3c1C(=O)OC3)O[C@@]1(C)CC[C@@H](C(C)(C)O)[C@](C)(CCC(=O)O)[C@H]1C2 [Compound 4, austalide P acid]", 92.6],
  ["C=C1CCC2C(C)(CCC(O)C2(C)C(=O)O)C1CCC(C)=CC(=O)O (stereo not drawn) [Compound 9, 3β-hydroxy-agathic acid]", 92.1],
  ["COC(=O)CC[C@]1(C)[C@H]2Cc3c(c(C)c4c(c3OC)C(=O)OC4)O[C@@]2(C)CC[C@H]1C(C)(C)O [Compound 2, austalide P]", 78.2],
  ["C=C1CC[C@@H]2[C@](C)(CCC[C@]2(C)C(=O)O)[C@H]1CC/C(C)=C/C(=O)O", 89.3]
]}

Values compiled from paper PMC7143578.
